Parameter: phosphorylation enrichment. Scope: all listed entries.
system: c-Abl (mouse); assay: phosphorylation enrichment, bacterial display (enrichment ratio); higher = better substrate or ligand; peptides without Tyr show the background
Please give only the number in your answer, with no unit.

Need phosphorylation enrichment of KKCTRYIDCDR [ASPA_Y64_L69R] , thanks.
0.72

Same read-out for DTDSSYCIPIA [GAB1_Y373_T377I] ?
0.82

Same read-out for SKNYTYIWWLN [PSG4_Y271] ?
0.676

Same read-out for CTTIHYNFLCN [TP53_Y234_M237L_YF] ?
0.585

Next:
Need phosphorylation enrichment of LTMAPYSSVSV [FAM81A_Y24_L29V] , thanks.
0.811

---

target: c-Src SH2; assay: SH2 binding enrichment of the phosphorylated peptide, bacterial display (enrichment ratio); higher = better substrate or ligand; peptides without Tyr show the background
Parameter: SH2 binding enrichment

Need SH2 binding enrichment of ARLEYCENEKK [IRS1_Y47_Y47C] , thanks.
0.49

Same read-out for ELANLYHHVCM [BICD2_Y538] ?
0.783

Same read-out for KGEDFYCVTFH [FHL1_Y149_C153Y_YF] ?
0.515

Same read-out for ATATDYHTTSH [SLC4A1_Y46] ?
0.642

---

molecular target: FGFR3 (UniProt P22607); test: phosphorylation enrichment, bacterial display (enrichment ratio); higher = better substrate or ligand; peptides without Tyr show the background
Sequence (P22607 whole entry, looked up): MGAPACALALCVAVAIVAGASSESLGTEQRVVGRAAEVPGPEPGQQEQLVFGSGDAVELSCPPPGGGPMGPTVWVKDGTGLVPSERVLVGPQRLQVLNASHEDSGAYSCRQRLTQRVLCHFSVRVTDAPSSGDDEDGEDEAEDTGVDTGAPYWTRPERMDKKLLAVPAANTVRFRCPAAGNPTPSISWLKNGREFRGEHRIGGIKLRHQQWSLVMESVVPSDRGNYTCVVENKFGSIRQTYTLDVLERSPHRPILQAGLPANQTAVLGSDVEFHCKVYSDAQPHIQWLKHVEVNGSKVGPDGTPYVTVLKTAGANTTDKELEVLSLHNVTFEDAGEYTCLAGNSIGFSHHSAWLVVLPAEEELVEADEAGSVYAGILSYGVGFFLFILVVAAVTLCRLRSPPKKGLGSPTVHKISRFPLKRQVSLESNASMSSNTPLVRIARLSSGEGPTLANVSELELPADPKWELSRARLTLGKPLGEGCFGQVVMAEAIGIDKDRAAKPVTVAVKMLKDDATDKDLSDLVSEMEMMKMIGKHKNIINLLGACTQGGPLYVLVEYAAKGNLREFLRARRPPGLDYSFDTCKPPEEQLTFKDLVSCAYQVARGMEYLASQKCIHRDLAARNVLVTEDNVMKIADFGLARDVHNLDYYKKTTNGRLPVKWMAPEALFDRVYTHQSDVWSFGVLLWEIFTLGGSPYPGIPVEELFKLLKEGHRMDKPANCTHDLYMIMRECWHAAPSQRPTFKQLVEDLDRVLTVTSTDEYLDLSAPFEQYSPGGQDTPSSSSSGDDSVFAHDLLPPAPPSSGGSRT
Values of phosphorylation enrichment greater than or equal to 0.8 map to T; values below map to F.

Example cases with answers are listed next.
Evaluate FLENFYDLKKD [MMP3_Y42_YF] : phosphorylation enrichment at minimum 0.8?
F

Same read-out for FDNPVCQKTTE [LDLR_Y828_Y828C] ?
F

Same read-out for LEFNEYFRDLN [HPRT1_Y198_D194E_YF] ?
T

Same read-out for KFVKMYDNHQL [MYO9A_Y203_YF] ?
F

Same read-out for TAGEPYHDIRF [BAP1_Y223] ?
T

Same read-out for RDEHGYISRCF [HSPB1_Y133_Q128R] ?
T

Same read-out for SETSRYLSDLF [KCNJ3_Y67] ?
F

Same read-out for IGEVVYQRAAM [GRIN2A_Y502_V506A] ?
F

Same read-out for AFPVSYSSSSA [RET_Y687_G691S] ?
F

Same read-out for VKPHRYRPGTV [H3-5_Y41] ?
F

Next:
Evaluate NPSFNYEIVNQ [DYNC1H1_Y3379_R3384Q_YF] : phosphorylation enrichment at minimum 0.8?
T

Same read-out for EILLSYPRTGY [TGM1_Y365_L366P] ?
F

---

Parameter: phosphorylation enrichment. Scope: all listed entries.
biological target: EPHB1 (UniProt P54762); assay: phosphorylation enrichment, bacterial display (enrichment ratio); higher = better substrate or ligand; peptides without Tyr show the background
Sequence (P54762 whole entry, looked up): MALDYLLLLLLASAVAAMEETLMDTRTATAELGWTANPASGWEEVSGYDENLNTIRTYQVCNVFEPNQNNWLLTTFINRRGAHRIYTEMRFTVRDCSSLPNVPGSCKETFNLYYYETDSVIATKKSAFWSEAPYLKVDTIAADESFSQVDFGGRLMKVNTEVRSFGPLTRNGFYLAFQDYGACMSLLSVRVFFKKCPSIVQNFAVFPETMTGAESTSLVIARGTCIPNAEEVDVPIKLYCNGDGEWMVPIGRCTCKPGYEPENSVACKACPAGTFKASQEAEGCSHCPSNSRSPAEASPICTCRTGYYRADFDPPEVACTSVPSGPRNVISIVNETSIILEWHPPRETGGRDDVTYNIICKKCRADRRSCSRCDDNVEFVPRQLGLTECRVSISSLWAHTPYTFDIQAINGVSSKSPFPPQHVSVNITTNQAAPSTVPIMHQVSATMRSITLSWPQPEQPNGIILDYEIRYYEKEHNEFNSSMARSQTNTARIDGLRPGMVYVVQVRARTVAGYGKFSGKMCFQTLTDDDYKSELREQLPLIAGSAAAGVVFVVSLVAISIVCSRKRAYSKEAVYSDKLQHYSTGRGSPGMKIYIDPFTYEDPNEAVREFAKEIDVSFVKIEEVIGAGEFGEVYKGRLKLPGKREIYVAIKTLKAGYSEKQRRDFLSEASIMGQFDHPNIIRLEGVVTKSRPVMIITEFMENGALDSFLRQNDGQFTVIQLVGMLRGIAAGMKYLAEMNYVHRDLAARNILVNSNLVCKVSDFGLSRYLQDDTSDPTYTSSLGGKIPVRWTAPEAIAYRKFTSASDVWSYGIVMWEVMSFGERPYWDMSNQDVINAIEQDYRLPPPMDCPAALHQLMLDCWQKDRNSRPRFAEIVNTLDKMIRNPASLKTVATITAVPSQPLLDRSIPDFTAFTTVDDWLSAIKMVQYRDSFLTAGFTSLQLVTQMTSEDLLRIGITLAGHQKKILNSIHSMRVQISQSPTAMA
Please give only the number in your answer, with no unit.

Quick check: phosphorylation enrichment on EPHB1 (UniProt P54762), item REGAKYVSHDA [ASS1_Y113_G117D] ?
0.508

Same read-out for LVMFIYVIFGM [SCN1A_Y1684_A1685V] ?
0.496

Same read-out for DTKDDYNALSV [IL17RB_Y457] ?
0.495

Same read-out for AFPVSYSSSSA [RET_Y687_G691S] ?
0.511

Same read-out for EPVSDYINADI [PTPN11_Y304_N308D] ?
0.695

Same read-out for GFRVCYTPDSR [PTPRF_Y451_Y450C_YF] ?
0.513

Same read-out for RRIHSYRGQLW [VHL_Y112_H115Q] ?
0.491

Moving on to another sequence below.
Quick check: phosphorylation enrichment on EPHB1 (UniProt P54762), item RLEKEYFDQHF [NPC1_Y394] ?
0.717

---

molecular target: SHP2-C SH2; assay: SH2 binding enrichment of the phosphorylated peptide, bacterial display (enrichment ratio); higher = better substrate or ligand; peptides without Tyr show the background
Parameter: SH2 binding enrichment. Scope: all listed entries.
Please give only the number in your answer, with no unit.

These solved cases illustrate the format of a correct answer.
Need SH2 binding enrichment of INQGPYENHSV [ATP6V1B1_Y462_R465H] , thanks.
0.777

Same read-out for VGGRIYIDDGL [PKLR_Y218] ?
0.778

Same read-out for TFMKQYPKVFL [CNBD1_Y70] ?
0.811

Next:
Need SH2 binding enrichment of TVEDHYFEGGI [TKT_Y563_YF] , thanks.
0.805

---

target: FGFR1 (UniProt P11362); experiment: phosphorylation enrichment, bacterial display (enrichment ratio); higher = better substrate or ligand; peptides without Tyr show the background
Sequence (P11362 whole entry, looked up): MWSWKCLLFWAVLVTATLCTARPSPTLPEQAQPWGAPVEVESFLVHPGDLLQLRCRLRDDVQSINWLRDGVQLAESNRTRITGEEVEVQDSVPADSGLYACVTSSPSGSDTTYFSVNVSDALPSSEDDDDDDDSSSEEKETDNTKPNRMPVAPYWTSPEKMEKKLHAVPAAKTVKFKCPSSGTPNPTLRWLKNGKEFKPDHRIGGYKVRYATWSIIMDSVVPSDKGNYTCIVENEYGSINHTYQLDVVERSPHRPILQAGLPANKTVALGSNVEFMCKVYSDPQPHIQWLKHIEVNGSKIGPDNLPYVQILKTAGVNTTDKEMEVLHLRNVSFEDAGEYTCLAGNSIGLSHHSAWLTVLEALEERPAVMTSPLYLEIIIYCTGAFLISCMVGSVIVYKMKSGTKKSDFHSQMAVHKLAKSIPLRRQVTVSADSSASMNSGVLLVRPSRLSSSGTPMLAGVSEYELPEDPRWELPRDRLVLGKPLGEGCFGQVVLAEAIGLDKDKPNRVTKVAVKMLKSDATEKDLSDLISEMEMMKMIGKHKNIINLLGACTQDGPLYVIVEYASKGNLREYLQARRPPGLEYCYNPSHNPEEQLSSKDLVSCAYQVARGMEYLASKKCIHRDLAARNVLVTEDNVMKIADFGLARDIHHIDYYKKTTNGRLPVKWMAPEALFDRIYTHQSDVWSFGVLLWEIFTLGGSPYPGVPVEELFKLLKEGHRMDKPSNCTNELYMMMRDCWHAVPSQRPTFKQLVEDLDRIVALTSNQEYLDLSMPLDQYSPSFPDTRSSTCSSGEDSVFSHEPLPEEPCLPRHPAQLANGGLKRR
Parameter: phosphorylation enrichment. Scope: all listed entries.
Please give only the number in your answer, with no unit.

These solved cases illustrate the format of a correct answer.
Need phosphorylation enrichment of VMIFAYLLHRG [PTEN_Y138_C136Y_YF] , thanks.
0.383

Same read-out for CKRQFYLFKGK [RSPO4_Y112_YF] ?
0.446

Same read-out for VEDHDYEGGIG [TKT_Y564_Y563D] ?
0.571

Same read-out for YMKEPYIQSRF [HIPK4_Y175_V171M] ?
0.611

Same read-out for TLLERYGMIEI [ACSF3_Y355_T358I] ?
0.515

Same read-out for PSQRRNVYYYS [PTEN_Y174_Y174N] ?
1.36

Same read-out for GIYKDYYRYNF [PLA2G2D_Y85_S80G] ?
12.2

Same read-out for PLTKVYVVEGS [ZMPSTE24_Y253] ?
0.494

Next:
Need phosphorylation enrichment of RRIHSYRGQLW [VHL_Y112_H115Q] , thanks.
0.536

Same read-out for CSSGGYEPRGR [FUS_Y239_R234C] ?
0.432

---

system: c-Abl (mouse); experiment: phosphorylation enrichment, bacterial display (enrichment ratio); higher = better substrate or ligand; peptides without Tyr show the background
Values of phosphorylation enrichment greater than or equal to 0.7 map to t; values below map to f.

Example cases with answers are listed next.
Evaluate IQKWEYVPLGP [FAH_Y244] : phosphorylation enrichment at minimum 0.7?
t

Same read-out for VKGGAYNPVTV [MCCC2_Y145_Y146N] ?
f

Now consider the entry below.
Evaluate QLPRGYISIPV [BAG3_Y205] : phosphorylation enrichment at minimum 0.7?
t

---

Parameter: SH2 binding enrichment. Scope: all listed entries.
biological target: SHP2-C SH2; assay: SH2 binding enrichment of the phosphorylated peptide, bacterial display (enrichment ratio); higher = better substrate or ligand; peptides without Tyr show the background
Please give only the number in your answer, with no unit.

These solved cases illustrate the format of a correct answer.
Need SH2 binding enrichment of DTDSSYCIPIA [GAB1_Y373_T377I] , thanks.
0.441

Same read-out for VDGSLYETHPQ [HK1_Y417_K418E] ?
0.661

Same read-out for IVKAYYVRARA [AIPL1_Y268] ?
0.923

Same read-out for TINPIYEHVGY [CHN1_Y143] ?
0.582

Same read-out for `IETGKYEILTE` ?
0.609

Next:
Need SH2 binding enrichment of TDHLQYFDSNK [ARAP1_Y359_R358Q] , thanks.
0.94

Same read-out for MVTSGYKAKMI [EFR3A_Y447_T451M] ?
0.469

Same read-out for YLELNYKEDEY [MME_Y502] ?
0.71

Same read-out for TTPAVYARVTK [CTRB2_Y246_A250T] ?
0.383

Same read-out for AMCVRYDGVEV [ADAMTSL2_Y594] ?
0.682

Same read-out for YRASYYRRGDR [LTK_Y677] ?
0.609

Same read-out for LFEDRYLLGTS [ASS1_Y87_YF] ?
0.537

Same read-out for LGEGSYGKVKE [STK11_Y60] ?
0.52

Same read-out for IHKEFYDGLFP [BCR_Y561] ?
0.77

Same read-out for ANAFIYVVQLP [L1CAM_Y420_YF] ?
0.668

Same read-out for PVKSEYPSIKL [NPC2_Y119] ?
0.592

---

biological target: FGFR3 (UniProt P22607); experiment: phosphorylation enrichment, bacterial display (enrichment ratio); higher = better substrate or ligand; peptides without Tyr show the background
Values of phosphorylation enrichment greater than or equal to 0.9 map to Y; values below map to N.

Evaluate DGTESYHTVSS [PLK1_Y462_L463H] : phosphorylation enrichment at minimum 0.9?
N

Same read-out for FFDANYDGKEF [MAPRE2_Y162_YF] ?
N

Same read-out for VLPIDYYFPPQ [AR_Y552] ?
Y

Same read-out for SIIKDYFHRGA [GATM_Y203] ?
N

Same read-out for LEIETCRRLLD [KRT12_Y429_Y429C] ?
Y

---

system: Fer (mouse); experiment: phosphorylation enrichment, bacterial display (enrichment ratio); higher = better substrate or ligand; peptides without Tyr show the background
Parameter: phosphorylation enrichment
Please give only the number in your answer, with no unit.

These solved cases illustrate the format of a correct answer.
Quick check: phosphorylation enrichment on Fer (mouse), item SARSAYQEAMD [SFN_Y151] ?
0.402

Same read-out for EFGSGYPNDPK [RNASEH2A_Y210_D205E_YF] ?
0.41

Same read-out for IVKAYYVRARA [AIPL1_Y268] ?
0.396

Same read-out for KLIMEYLPYGS [JAK2_Y931] ?
0.405

Next:
Quick check: phosphorylation enrichment on Fer (mouse), item YASALYGQRRS [FGF11_Y162_R163G] ?
0.411

Taken from the supplement of paper PMC10065799.
